Target: TLR7 (Homo sapiens, UniProt Q9NYK1)
Construct: Human peripheral blood mononuclear cells (PBMCs) consist of lymphocytes, monocytes and dendritic cells that express TLR7, TLR8 and TLR9; endogenous in cells
Sequence (Q9NYK1 27-1049): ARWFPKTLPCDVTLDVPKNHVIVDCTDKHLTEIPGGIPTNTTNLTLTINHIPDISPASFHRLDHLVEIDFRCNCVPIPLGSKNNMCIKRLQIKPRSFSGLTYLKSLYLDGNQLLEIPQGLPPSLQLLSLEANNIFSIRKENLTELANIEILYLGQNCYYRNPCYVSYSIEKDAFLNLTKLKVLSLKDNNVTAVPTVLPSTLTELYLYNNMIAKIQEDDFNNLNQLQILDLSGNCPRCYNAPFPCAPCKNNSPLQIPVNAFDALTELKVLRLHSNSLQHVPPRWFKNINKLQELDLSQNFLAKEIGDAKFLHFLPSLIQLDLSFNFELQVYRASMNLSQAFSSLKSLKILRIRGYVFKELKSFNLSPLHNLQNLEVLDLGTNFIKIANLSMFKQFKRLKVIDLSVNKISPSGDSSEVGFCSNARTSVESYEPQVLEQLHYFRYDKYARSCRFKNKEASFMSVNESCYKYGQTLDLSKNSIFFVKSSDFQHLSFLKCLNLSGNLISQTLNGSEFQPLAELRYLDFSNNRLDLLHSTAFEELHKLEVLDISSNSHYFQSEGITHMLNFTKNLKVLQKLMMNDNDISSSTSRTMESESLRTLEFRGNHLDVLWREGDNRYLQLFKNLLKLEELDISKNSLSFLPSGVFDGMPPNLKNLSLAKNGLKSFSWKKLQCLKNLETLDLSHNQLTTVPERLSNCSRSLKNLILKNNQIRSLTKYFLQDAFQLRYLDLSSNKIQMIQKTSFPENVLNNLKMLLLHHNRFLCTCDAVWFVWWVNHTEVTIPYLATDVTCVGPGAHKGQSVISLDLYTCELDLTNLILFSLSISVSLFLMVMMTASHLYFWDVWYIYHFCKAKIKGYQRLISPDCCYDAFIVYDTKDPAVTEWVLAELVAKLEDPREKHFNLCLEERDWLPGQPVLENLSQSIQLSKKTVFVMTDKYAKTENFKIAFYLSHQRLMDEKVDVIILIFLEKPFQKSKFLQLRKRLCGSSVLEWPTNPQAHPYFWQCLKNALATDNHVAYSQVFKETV
Assay: TLR7 human PBMC cell-based assay (antagonist, GS-986 stimulated cytokine release)
Settings: human PBMCs; TLR7 agonist GS-986 400 nM, 6 hours; cytokines (IL-6 and IFNα) in supernatant; read-out: TLR-7 EC50
pEC50: −log10 of the molar value.
REPORTED METRIC: pEC50

COMPOUND: Cc1cc(-c2[nH]c3cc(C4CCC5(C4)CN(CC(N)=O)C5)sc3c2C(C)C)cn2ncnc12 (racemic) [Example 295]
QUANTITATIVE RESULT: 9.85
--
COMPOUND: Cc1cc(-c2[nH]c3cc(-c4cnn(C5CCN(CCO)CC5)c4)sc3c2C(C)C)cn2ncnc12
QUANTITATIVE RESULT: 8.89
--
COMPOUND: Cc1cc(-c2[nH]c3cc(C(=O)N(C)C4CNC4)sc3c2C(C)C)cn2ncnc12
QUANTITATIVE RESULT: 8.52
--
COMPOUND: Cc1cc(-c2[nH]c3cc(-c4ccc5c(c4)CC(N)C5)sc3c2C(C)C)cn2ncnc12 (stereo not shown)
QUANTITATIVE RESULT: 9.22
--
COMPOUND: Cc1cc(-c2[nH]c3cc(C4CC4C(=O)N4CCN(CCO)CC4)sc3c2C(C)C)cn2ncnc12 (stereo not shown)
QUANTITATIVE RESULT: 7.64
--
COMPOUND: Cc1cc(-c2[nH]c3cc(C(=O)N4C5CNCC4COC5)sc3c2C(C)C)cc(C)n1
QUANTITATIVE RESULT: 7.22
--
COMPOUND: Cc1cc(-c2[nH]c3cc(C(=O)N4CCC5CC5(N)C4)sc3c2C(C)C)cc(C)n1 (stereo not shown)
QUANTITATIVE RESULT: 7.39
--
COMPOUND: Cc1cc(-c2[nH]c3cc(C4CC5CCC4CN5)sc3c2C(C)C)cn2ncnc12 (stereo not shown)
QUANTITATIVE RESULT: 8.88
--
COMPOUND: Cc1cc(-c2[nH]c3cc(C(=O)N4CC5(CCNCC5)C4)sc3c2C(C)C)cn2ncnc12
QUANTITATIVE RESULT: 8.60
--
COMPOUND: Cc1cc(-c2[nH]c3cc(-c4nnc(C5CCC(N)CC5)o4)sc3c2C(C)C)cc(C)n1 (stereo not shown)
QUANTITATIVE RESULT: 7.65
--
COMPOUND: Cc1cc(-c2[nH]c3cc(C(=O)N4CCN[C@H](C)C4)sc3c2C(C)C)cn2ncnc12
QUANTITATIVE RESULT: 8.96
--
COMPOUND: Cc1cc(-c2[nH]c3cc(C(=O)N(C)C4CCN(CC(N)=O)CC4)sc3c2C(C)C)cn2ncnc12
QUANTITATIVE RESULT: 8.89
--
COMPOUND: Cc1cc(-c2[nH]c3cc(C(=O)N(C)C4CCC(N5CC(OC(F)(F)F)C5)CC4)sc3c2C(C)C)cn2ncnc12 (stereo not shown)
QUANTITATIVE RESULT: 7.22
--
COMPOUND: Cc1cc(-c2[nH]c3cc(-c4nnc(C5CCN(CC(N)=O)CC5)s4)sc3c2C(C)C)cn2ncnc12
QUANTITATIVE RESULT: 8.57
--
COMPOUND: Cc1cc(-c2[nH]c3cc(C4CC5CCCC(C4)N5CC(N)=O)sc3c2C(C)C)cn2ncnc12 (stereo not shown)
QUANTITATIVE RESULT: 7.92
--
COMPOUND: Cc1cc(-c2[nH]c3cc(-c4nnc(C5CCNCC5)o4)sc3c2C(C)C)cc(C)n1
QUANTITATIVE RESULT: 7.44

Hey, just so you know, these numbers are from patent US20240217990A1.
